experiment: soluble on expression in E. coli; label from the status in PepcDB or PDB records
recordedEndpoint: soluble on expression in E. coli

Kindly indicate its recorded soluble on expression in E. coli. Item: GHMRRELAIEFSRVTESAALAGYKWLGRGDKNTADGAAVNAMRIMLNQVNIDGTIVIGEGEIDEAPMLYIGEKVGTGRGDAVDIAVDPIEGTRMTAMGQANALAVLAVGDKGCFLNAPDMYMEKLIVGPGAKGTIDLNLPLADNLRNVAAALGKPLSELTVTILAKPRHDAVIAEMQQLGVRVFAIPDGDVAASILTCMPDSEVDVLYGIGGAPEGVVSAAVIRALDGDMNGRLLARHDVKGDNEENRRIGEQELARCKAMGIEAGKVLRLGDMARSDNVIFSATGITKGDLLEGISRKGNIATTETLLIRGKSRTIRRIQSIHYLDRKDPEMQVHIL soluble

Kindly indicate its recorded soluble on expression in E. coli. Item: GPGSMEDAHMLVATDDADVAYFGIFDGHSNAECSAYVARELPQRLKKLPESITAEMLEKVCIEVDEAYMKTSTEGGTTGTFCVIRKDLTVTIANVGDSRILVCRGGKLIFATEDHKPYIPGETERIVACGGSVVSNRVDGDLAVSRAFGDASFKVKGTKDYRMQKVIAVPDVSVLQCEPNDFIILACDGVFEGNFSNEDVCQFVWEQQQNCWDDLAVVACRVCDEAIRCGSKDNISCLVVQLAEGASRVKAFGATSFVPGPPFPRNQQPCRAAYAQMAELGHTTTAAALQTRYQLLQAFSKNKLNSQPPVMRTAFEMSDEVDVETEWSFFGKGPAPGNEKNFFEALANTGNSS not soluble

Kindly indicate its recorded soluble on expression in E. coli. Item: MGSDKIHHHHHHMEISFTRVALLAAALFFVGCDQKPQPAKTHATEVTVLEGKTMGTFWRASIPGIDAKRSAELKEKIQTQLDADDQLLSTYKKDSALMRFNDSQSLSPWPVSEAMADIVTTSLRIGAKTDGAMDITVGPLVNLWGFGPEQQPVQIPSQEQIDAMKAKTGLQHLTVINQSHQQYLQKDLPDLYVDLSTVGEGYAADHLARLMEQEGISRYLVSVGGALNSRGMNGEGLPWRVAIQKPTDKENAVQAVVDINGHGISTSGSYRNYYELDGKRLSHVIDPQTGRPIEHNLVSVTVIAPTALEADAWDTGLMVLGPEKAKEVVRREGLAVYMITKEGDSFKTWMSPQFKSFLVSEKN not soluble

Kindly indicate its recorded soluble on expression in E. coli. Item: MIQAILVFNNHGKPRLVRFYQRFPEEIQQQIVRETFHLVLKRDDNICNFLEGGSLIGGSDYKLIYRHYATLYFVFCVDSSESELGILDLIQVFVETLDKCFENVCELDLIFHMDKVHYILQEVVMGGMVLETNMNEIVAQIEAQNRLEKSEGGLSAAPARAVSAVKNINLPEIPRNINIGDLNIKVPNLSQFV not soluble

More entries:
Kindly indicate its recorded soluble on expression in E. coli. Item: MGSDKIHHHHHHMIMLTVSDYLAQPVVSPDVSIRYGDHPDQFGDLYLPAQVHPAPVVMMIHGGCWQAAYPLTPLGECCAALRARGYAVWNLEYRRLGNGGGWPSTFLDVAAGADHLRVLAEHYPLDLNRVVVVGHSAGGHLALWLATRPKLPPTSPLYIPHPLPVHGVVALAAVADLRRGVTATACGTACLELIDNEESRCAEASPHARLPLDIPHYHLVGGDDPIVPASYVAAFVDAARQAGDLAHLTIVPKCGHFELTTPHSQAWQTVVQTIDKACSLNRS not soluble

Kindly indicate its recorded soluble on expression in E. coli. Item: MGSDKIHHHHHHMLFSVVDDRSGVAYQEYHCVYGEDAETALRFLFNSMAPKADPSFPFQGRPKLIYLDNGPVAKRRVFQSVMRALGIEWQTHIPASKDGTRTTARSKGKVERPFRTVKEAHETLYHFHKPETEAQANEWLLRYLVRTYNQQTHRAEPLSRIEDWITHVPTEGIREMCSWDQFCRFAREPERRKVGPDARITTDGTAYELEPEMAGDYVVLLWGLFDDELHAEFDGERFGPHYPVSGPIPQHRYRAFKRSKADERSARIRSLADQLGLPIAALSGEDVRLEPGSADSTLPIQPFVFEPQESRIAAKLAIAEELAMPLAKLSMDDRAFIDQVLSETLATD not soluble

Kindly indicate its recorded soluble on expression in E. coli. Item: MAHHHHHHMDTHALLALAQSAVDAGNVKAACEFYEVALAQSPNNDEVLEAYAEVMIHYAQDIPRAQQMLRHAIDINPNQGYVKYLNLAQLCEAEEALKCYEKAYEIASLMLHGCRKKKMKKTLQETMATMCCAVAELYLTDLCFAENAEQQCEQAVNRALELNSDLVEPHQLQASLRLSQCRPDEALQSLRRAVDATHRLGEEHQPTYESKIELGRLLMQVDPAEAFQFLLEVLQYGDNNPYVWFLLGESARMRRRYADAARLLRRARVMLVVSGGDATALSEVDAAINVLVQEMGGPEEAAQVKDLDHPYPLELLEAEDDEGAEEDGEDDLEEPEREPCDDEDDA not soluble

Kindly indicate its recorded soluble on expression in E. coli. Item: MGSDKIHHHHHHVDGTSKQVIKRDKMITQAISQLTPQNKLLVEEINKNVQDTILERLNMNIAGRWNDSSLSLTLMKSTIKFVPVIDSPSRLYLVNDSEKVFRIPEKFACFYGQNDNGETIYFYAIYHAENFMKDTNPKSYYQGYVEVFGKEAADKMVESSIKRTEAERWEIMSFTPQKNETKKFEYAREHSDDGTFFILTRENTYPHICFFKDKKPYYCWGANQDELSMEPLENYLKP not soluble

Kindly indicate its recorded soluble on expression in E. coli. Item: GAMESHPHIQLLKSNRELLVTHIRNTQCLVDNLLKNDYFSAEDAEIVCACPTQPDKVRKILDLVQSKGEEVSEFFLYLLQQLADAYVDLRPWLLEIGFSPSLLTQSKVVVNTDPVSRYTQQLRHHLG soluble

Kindly indicate its recorded soluble on expression in E. coli. Item: GAMGMKVDVGPDPSLVYRPDVDPEMAKSKDSFRNYTSGPLLDRVFTTYKLMHTHQTVDFVSRKRIQYGSFSYKKMTIMEAVGMLDDLVDESDPDVDFPNSFHAFQTAEGIRKAHPDKDWFHLVGLLHDLGKIMALWGEPQWAVVGDTFPVGCRPQASVVFCDSTFQDNPDLQDPRYSTELGMYQPHCGLENVLMSWGHDEYLYQMMKFNKFSLPSEAFYMIRFHSFYPWHTGGDYRQLCSQQDLDMLPWVQEFNKFDLYTKCPDLPDVESLRPYYQGLIDKYCPGTLSW soluble
